Every entry's value here was drawn from ChEMBL document CHEMBL5233240.

Here's what we have: pIC50 numbers for Voltage-gated inwardly rectifying potassium channel KCNH2 (Homo sapiens, UniProt Q12809).
In simple prose, pIC50 is minus the logarithm base ten of a concentration in moles per litre.

{"Smi": "N#Cc1ccc2cc1Oc1ccc3c(c1)[C@@H](CCC3)N1CC[C@H](C1)NCc1cncn1-2", "pIC50": 5.15}

Then this compound:
Q: Please look at this compound and report its pIC50: "N#Cc1ccc(Cn2cncc2CC[C@H]2CCN(Cc3cccc(Cl)c3)C2=O)cc1"
Ans: 6.36
